- assaySystem: BRD4 BD1 (Homo sapiens, UniProt O60885)
- testProtocol: AlphaScreen binding assay, BRD4 Bromodomain 1
quantity: IC50

Request: IC50, test system BRD4 BD1 (Homo sapiens, UniProt O60885), entry CC(=O)N1c2ccc(-c3ncco3)cc2N(C(=O)c2ccco2)C[C@@H]1C
1 to 10 µM

// repeat for CC(=O)N1c2ccc(-c3ccc(OCCS(C)(=O)=O)cc3)cc2N(C(=O)OC(C)C)C[C@@H]1C and report
0.1 to 1 µM

// repeat for CC(=O)N1c2ccccc2N(C(=O)COCC(C)C)C[C@@H]1C and report
> 10 µM

// repeat for COC(=O)c1ccc(OC(=O)N2C[C@H](C)N(C(C)=O)c3ccc(-c4ccc(S(C)(=O)=O)cc4)cc32)cc1 and report
0.1 to 1 µM

// repeat for CCOC(=O)N1C[C@H](C)N(C(C)=O)c2ccc(-c3ccc(OC)c(N4CCCS4(=O)=O)c3)cc21 and report
0.1 to 1 µM

// repeat for CC(=O)N1c2ccc(-c3cnn(CC(C)(C)O)c3)cc2N(C(=O)OC2CC(F)(F)C2)C[C@@H]1C and report
0.1 to 1 µM

// repeat for CC(=O)N1c2ccc(-c3ccc(C(=O)N4CC[C@@H](N(C)C)C4)cc3)cc2N(C(=O)OC(C)C)C[C@@H]1C and report
< 0.1 µM

// repeat for CC(=O)N1c2ccc(-c3cnn(C4CCCS(=O)(=O)C4)c3)cc2N(C(=O)OC2CCOCC2)C[C@@H]1C (stereo partly drawn) and report
0.1 to 1 µM

// repeat for CC(=O)N1c2ccc(-c3cnn(C4CCNC(=O)C4)c3)cc2N(C(=O)OC2CCC(F)(F)CC2)C[C@@H]1C (stereo partly drawn) and report
0.1 to 1 µM

// repeat for CCOC(=O)N1C[C@H](C)N(C(C)=O)c2ccc(-c3ccc(S(C)(=O)=O)cc3)cc21 and report
0.1 to 1 µM

// repeat for CC(=O)N1c2ccc(-c3ccc4scnc4c3)cc2N(C(=O)c2ccco2)C[C@@H]1C and report
0.1 to 1 µM

// repeat for COc1ccc(-c2ccc3c(c2)N(C(=O)c2ccco2)C[C@H](C)N3C(C)=O)cn1 and report
1 to 10 µM

// repeat for CC(=O)N1c2ccc(-c3cnc4ccccn34)cc2N(C(=O)c2ccco2)C[C@@H]1C and report
1 to 10 µM

// repeat for CC(=O)N1c2ccc(-c3cnn(CCO)c3)cc2N(C(=O)OC2CCC(F)(F)CC2)C[C@@H]1C and report
0.1 to 1 µM
